experiment.notes: Pharmacokinetics (PK) test in rats
Assay type: in vivo
conditions.used: rat, plasma, oral
Quick list: Cmax per entry.
Write the value in µM as a bare number.

molecule	endpoint.label	endpoint.value
CN(c1ncnc2[nH]ccc12)N1CCC[C@@H](C(=O)NCC#N)C1 (single isomer, unassigned)	Cmax	2.46
CN(c1ncnc2[nH]ccc12)N1CCC[C@@H](C(=O)NCC(F)(F)F)C1 (single isomer, unassigned)	Cmax	3.69

Moving on to the next molecule.
Query: Quickly give me recorded Cmax for CN(c1ncnc2[nH]ccc12)N1CCCC(C(=O)NCC#N)C1 (stereo not drawn)
Response: 3.25

----------
tested.system: JAK2 protein kinase (Homo sapiens)
Sequence (O60674 whole entry): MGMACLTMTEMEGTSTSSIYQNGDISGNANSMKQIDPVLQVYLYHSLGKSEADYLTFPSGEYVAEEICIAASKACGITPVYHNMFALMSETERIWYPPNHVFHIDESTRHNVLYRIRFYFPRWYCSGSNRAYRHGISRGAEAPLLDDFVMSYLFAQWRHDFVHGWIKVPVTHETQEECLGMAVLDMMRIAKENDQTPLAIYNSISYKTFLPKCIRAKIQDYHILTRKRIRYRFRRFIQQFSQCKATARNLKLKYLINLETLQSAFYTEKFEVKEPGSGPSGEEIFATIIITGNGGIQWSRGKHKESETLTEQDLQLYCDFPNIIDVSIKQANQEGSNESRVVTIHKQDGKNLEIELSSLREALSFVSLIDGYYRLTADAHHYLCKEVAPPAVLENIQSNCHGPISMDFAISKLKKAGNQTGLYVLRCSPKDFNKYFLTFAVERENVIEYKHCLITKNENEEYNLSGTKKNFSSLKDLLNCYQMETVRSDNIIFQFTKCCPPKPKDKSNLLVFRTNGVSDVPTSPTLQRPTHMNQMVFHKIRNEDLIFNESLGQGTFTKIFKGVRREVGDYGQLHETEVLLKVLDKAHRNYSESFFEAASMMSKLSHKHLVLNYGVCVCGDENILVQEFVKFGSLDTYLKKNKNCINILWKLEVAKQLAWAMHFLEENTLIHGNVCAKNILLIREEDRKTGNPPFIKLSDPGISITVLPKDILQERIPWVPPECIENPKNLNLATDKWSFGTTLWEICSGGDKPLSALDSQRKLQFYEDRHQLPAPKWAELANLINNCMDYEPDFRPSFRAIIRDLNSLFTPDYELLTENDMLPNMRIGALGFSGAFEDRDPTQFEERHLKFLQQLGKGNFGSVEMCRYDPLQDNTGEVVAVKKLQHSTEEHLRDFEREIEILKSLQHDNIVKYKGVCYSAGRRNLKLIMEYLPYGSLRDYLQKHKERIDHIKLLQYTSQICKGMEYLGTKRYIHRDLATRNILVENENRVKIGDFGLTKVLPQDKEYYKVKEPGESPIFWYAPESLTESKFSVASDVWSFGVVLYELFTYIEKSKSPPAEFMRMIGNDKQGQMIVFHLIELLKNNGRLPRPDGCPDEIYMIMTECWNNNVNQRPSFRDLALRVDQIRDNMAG
endpoint.label: IC50

compound	endpoint.value
CN(c1ncnc2[nH]ccc12)N1CCCC(NC(=O)CC(F)(F)F)C1 (stereo not shown)	> 1000 nM
CN(c1ncnc2[nH]ccc12)N1CCC(C(=O)NCC#N)CC1	100 to 1000 nM
CN(c1ncnc2[nH]ccc12)N1CCCC(C(=O)N2CC(O)C2)C1 (stereo not shown)	100 to 1000 nM
CN(c1ncnc2[nH]ccc12)N1CCCC(C(=O)NCC(F)(F)F)C1 (stereo not shown) [WX04]	10 to 100 nM
CN(c1ncnc2[nH]ccc12)N1CCCC(C(=O)Nc2cccc(C(F)(F)F)c2)C1 (stereo not shown)	100 to 1000 nM
CC(C)(C)OC(=O)N1CC2CN(Nc3ncnc4[nH]ccc34)CC2C1 (stereo not shown)	> 1000 nM
CN(c1ncnc2[nH]ccc12)N1CCC[C@@H](C(=O)NCC(F)(F)F)C1 (single isomer, unassigned)	10 to 100 nM
CN(c1ncnc2[nH]ccc12)N1CCCC(C)(C(=O)NCC(F)(F)F)C1 (stereo not shown)	> 1000 nM

Query: Find the measured IC50 of CN(c1ncnc2[nH]ccc12)N1CCC(NC(=O)CC(F)(F)F)CC1 with JAK2 protein kinase (Homo sapiens) as test system.
Response: 100 to 1000 nM

Query: Find the measured IC50 of CN(c1ncnc2[nH]ccc12)N1CCCN(C(=O)CC#N)CC1 with JAK2 protein kinase (Homo sapiens) as test system.
Response: 100 to 1000 nM

Query: Find the measured IC50 of CN(c1ccnc2[nH]ccc12)N1CCCC(C(=O)NCC(F)(F)F)C1 (stereo not shown) with JAK2 protein kinase (Homo sapiens) as test system.
Response: 100 to 1000 nM

Query: Find the measured IC50 of CN(c1ncnc2[nH]ccc12)N1CCC[C@H](C(=O)NCC(F)F)C1 (single isomer, unassigned) with JAK2 protein kinase (Homo sapiens) as test system.
Response: > 1000 nM

Query: Find the measured IC50 of O=C(NCC(F)(F)F)C1CCCN(N(c2ncnc3[nH]ccc23)C2CC2)C1 (stereo not shown) with JAK2 protein kinase (Homo sapiens) as test system.
Response: 100 to 1000 nM

Query: Find the measured IC50 of CN(c1ncnc2[nH]ccc12)N1CCC(C(=O)NCC(F)(F)F)C1 (single isomer, unassigned) [WX33] with JAK2 protein kinase (Homo sapiens) as test system.
Response: 100 to 1000 nM

Query: Find the measured IC50 of CN(c1ncnc2[nH]ccc12)N1CCOC(C(=O)NCC(F)(F)F)C1 (stereo not shown) with JAK2 protein kinase (Homo sapiens) as test system.
Response: 100 to 1000 nM

Query: Find the measured IC50 of CN(c1ncnc2[nH]ccc12)N1CCCC(C(=O)NCC#N)C1 (stereo not shown) with JAK2 protein kinase (Homo sapiens) as test system.
Response: 10 to 100 nM

Query: Find the measured IC50 of CN(CC(F)(F)F)C(=O)C1CCCN(N(C)c2ncnc3[nH]ccc23)C1 (stereo not shown) with JAK2 protein kinase (Homo sapiens) as test system.
Response: 100 to 1000 nM

Query: Find the measured IC50 of N#CCNC(=O)C1CCCN(Nc2ncnc3[nH]ccc23)C1 (stereo not shown) with JAK2 protein kinase (Homo sapiens) as test system.
Response: 10 to 100 nM

Query: Find the measured IC50 of N#CCNC(=O)C1CCN(Nc2ncnc3[nH]ccc23)CC1 with JAK2 protein kinase (Homo sapiens) as test system.
Response: > 1000 nM

----------
Parameter 'readout' = IC50; parameter 'system' = JAK2 protein kinase (Homo sapiens).

Example entries and their recorded answers appear below.
molecule	endpoint.value
O=C(NCC(F)(F)F)C1CCN(Nc2ncnc3[nH]ccc23)CC1	> 1 µM
CN(c1ncnc2[nH]ccc12)N1CCC(C(=O)NCC(F)(F)F)C1 (single isomer, unassigned) [WX32]	< 0.01 µM
CN(c1ncnc2[nH]ccc12)N1CCCC(CNC(=O)CC#N)C1 (stereo not drawn)	0.1 to 1 µM
COCNC(=O)C1CCCN(N(C)c2ncnc3[nH]ccc23)C1 (stereo not drawn)	0.1 to 1 µM
CN(c1ncnc2[nH]ccc12)N1CCCC(c2ncc(C(F)(F)F)[nH]2)C1 (stereo not drawn)	0.01 to 0.1 µM
CN(c1ncnc2[nH]ccc12)N1CCCC(C)(C(=O)NCC#N)C1 (stereo not drawn)	> 1 µM
CN(c1ncnc2[nH]ccc12)N1CCCC(CC#N)C1 (stereo not drawn)	0.1 to 1 µM
CN(c1ncnc2[nH]ccc12)N1CCC[C@H](C(=O)NCC#N)C1 (single isomer, unassigned)	> 1 µM

Moving on to the next molecule.
Query: Quickly give me recorded IC50 for CN(c1ncnc2[nH]ccc12)N1CCCC(C(=O)NCC(F)(F)F)C1 (single isomer, unassigned) [WX06]
Response: > 1 µM

----------
Parameter 'readout' = IC50; parameter 'system' = JAK2 protein kinase (Homo sapiens).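 Further: recombinant human JAK2 with ULight-labelled JAK-1(Tyr1023) peptide substrate, phosphorylation detected by TR-FRET using Eu-labelled anti-phosphotyrosine antibody, 1% DMSO.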

Example entries and their recorded answers appear below.
molecule	IC50
CN(c1ncnc2[nH]ccc12)N1CCCC(C(=O)NC2CC(F)(F)C2)C1 (stereo not shown)	> 1000 nM
CN(c1ncnc2[nH]ccc12)N1CCC[C@@H](C(=O)NCC(F)F)C1 (single isomer, unassigned)	< 10 nM
CSCNC(=O)C1CCCN(N(C)c2ncnc3[nH]ccc23)C1 (stereo not shown)	10 to 100 nM

Moving on to the next molecule.
Query: Find the measured IC50 of CN(c1ncnc2[nH]ccc12)N1CCC[C@@H](C(=O)NCC#N)C1 (single isomer, unassigned) with JAK2 protein kinase (Homo sapiens) as test system.
Response: < 10 nM

----------
experiment.notes: Pharmacokinetics (PK) test in mice
Format: in vivo, male DBA/1 mice
conditions.used: male, DBA/1, mouse, plasma, oral
Quick list: Cmax per entry.
Write the value in nM as a bare number.

compound	endpoint.value
CN(c1ncnc2[nH]ccc12)N1CCCC(C(=O)NCC#N)C1 (stereo not drawn)	2290
CN(c1ncnc2[nH]ccc12)N1CCC[C@@H](C(=O)NCC#N)C1 (single isomer, unassigned)	2440

Query: Quickly give me recorded Cmax for CN(c1ncnc2[nH]ccc12)N1CCC[C@@H](C(=O)NCC(F)(F)F)C1 (single isomer, unassigned)
Response: 1230

----------
tested.system: JAK1 protein kinase (Homo sapiens)
Sequence (P23458 whole entry): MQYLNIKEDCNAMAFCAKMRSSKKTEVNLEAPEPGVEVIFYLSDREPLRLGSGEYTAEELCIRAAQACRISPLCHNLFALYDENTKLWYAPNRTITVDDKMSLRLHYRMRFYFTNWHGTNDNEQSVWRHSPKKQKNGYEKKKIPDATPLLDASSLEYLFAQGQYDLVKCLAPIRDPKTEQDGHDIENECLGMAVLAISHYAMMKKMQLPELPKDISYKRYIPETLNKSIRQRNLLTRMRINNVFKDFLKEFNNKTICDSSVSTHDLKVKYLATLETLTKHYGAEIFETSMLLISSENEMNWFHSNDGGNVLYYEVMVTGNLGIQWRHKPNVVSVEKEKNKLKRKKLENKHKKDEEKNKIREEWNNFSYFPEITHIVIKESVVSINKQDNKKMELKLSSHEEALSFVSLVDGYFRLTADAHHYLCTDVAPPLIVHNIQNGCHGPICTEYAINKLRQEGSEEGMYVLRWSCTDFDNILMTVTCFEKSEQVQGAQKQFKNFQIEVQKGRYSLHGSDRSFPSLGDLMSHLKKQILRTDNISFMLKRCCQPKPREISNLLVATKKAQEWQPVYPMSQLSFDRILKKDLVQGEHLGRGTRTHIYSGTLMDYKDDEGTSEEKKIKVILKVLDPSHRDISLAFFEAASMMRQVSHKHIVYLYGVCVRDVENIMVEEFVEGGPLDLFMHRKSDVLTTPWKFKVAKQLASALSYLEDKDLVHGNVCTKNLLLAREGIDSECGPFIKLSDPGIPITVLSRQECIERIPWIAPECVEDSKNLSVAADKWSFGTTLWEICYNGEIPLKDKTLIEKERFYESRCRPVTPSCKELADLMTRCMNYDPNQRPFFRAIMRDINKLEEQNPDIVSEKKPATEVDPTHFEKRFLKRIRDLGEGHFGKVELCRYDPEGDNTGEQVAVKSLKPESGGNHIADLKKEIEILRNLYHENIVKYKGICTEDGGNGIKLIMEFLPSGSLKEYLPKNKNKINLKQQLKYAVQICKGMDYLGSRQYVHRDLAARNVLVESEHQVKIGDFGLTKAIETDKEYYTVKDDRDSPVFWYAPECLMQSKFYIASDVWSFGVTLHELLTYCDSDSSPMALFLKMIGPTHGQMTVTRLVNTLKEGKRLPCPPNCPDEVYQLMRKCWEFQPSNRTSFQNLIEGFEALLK
endpoint.label: IC50

molecule	tested.system	IC50
CN(c1ncnc2[nH]ccc12)N1CCC[C@@H](C(=O)NCC(F)(F)F)C1 (single isomer, unassigned)	JAK1 protein kinase (Homo sapiens)	< 10 nM
CN(c1ncnc2[nH]ccc12)N1CCCC(C)(C(=O)NCC(F)(F)F)C1 (stereo not shown)	JAK1 protein kinase (Homo sapiens)	> 1000 nM
O=C(NCC(F)(F)F)C1CCC2(CC1)CCN(Nc1ncnc3[nH]ccc13)CC2	JAK1 protein kinase (Homo sapiens)	100 to 1000 nM

Query: Quickly give me recorded IC50 for CN(c1ncnc2[nH]ccc12)N1CCCC(C(=O)NCC#N)C1 (stereo not shown)
Response: < 10 nM

Query: Quickly give me recorded IC50 for O=C(NCC(F)(F)F)C1CCCN(N(c2ncnc3[nH]ccc23)C2CC2)C1 (stereo not shown)
Response: 10 to 100 nM

----------
Parameter 'readout' = IC50; parameter 'system' = JAK3 (Homo sapiens).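 Further: recombinant human JAK3 phosphorylating ULight-JAK-1(Tyr1023) peptide at 4 µM ATP, with 1% DMSO, detected by Eu-anti-phosphotyrosine TR-FRET on Envision and converted to percent inhibition.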
Sequence (P52333 whole entry): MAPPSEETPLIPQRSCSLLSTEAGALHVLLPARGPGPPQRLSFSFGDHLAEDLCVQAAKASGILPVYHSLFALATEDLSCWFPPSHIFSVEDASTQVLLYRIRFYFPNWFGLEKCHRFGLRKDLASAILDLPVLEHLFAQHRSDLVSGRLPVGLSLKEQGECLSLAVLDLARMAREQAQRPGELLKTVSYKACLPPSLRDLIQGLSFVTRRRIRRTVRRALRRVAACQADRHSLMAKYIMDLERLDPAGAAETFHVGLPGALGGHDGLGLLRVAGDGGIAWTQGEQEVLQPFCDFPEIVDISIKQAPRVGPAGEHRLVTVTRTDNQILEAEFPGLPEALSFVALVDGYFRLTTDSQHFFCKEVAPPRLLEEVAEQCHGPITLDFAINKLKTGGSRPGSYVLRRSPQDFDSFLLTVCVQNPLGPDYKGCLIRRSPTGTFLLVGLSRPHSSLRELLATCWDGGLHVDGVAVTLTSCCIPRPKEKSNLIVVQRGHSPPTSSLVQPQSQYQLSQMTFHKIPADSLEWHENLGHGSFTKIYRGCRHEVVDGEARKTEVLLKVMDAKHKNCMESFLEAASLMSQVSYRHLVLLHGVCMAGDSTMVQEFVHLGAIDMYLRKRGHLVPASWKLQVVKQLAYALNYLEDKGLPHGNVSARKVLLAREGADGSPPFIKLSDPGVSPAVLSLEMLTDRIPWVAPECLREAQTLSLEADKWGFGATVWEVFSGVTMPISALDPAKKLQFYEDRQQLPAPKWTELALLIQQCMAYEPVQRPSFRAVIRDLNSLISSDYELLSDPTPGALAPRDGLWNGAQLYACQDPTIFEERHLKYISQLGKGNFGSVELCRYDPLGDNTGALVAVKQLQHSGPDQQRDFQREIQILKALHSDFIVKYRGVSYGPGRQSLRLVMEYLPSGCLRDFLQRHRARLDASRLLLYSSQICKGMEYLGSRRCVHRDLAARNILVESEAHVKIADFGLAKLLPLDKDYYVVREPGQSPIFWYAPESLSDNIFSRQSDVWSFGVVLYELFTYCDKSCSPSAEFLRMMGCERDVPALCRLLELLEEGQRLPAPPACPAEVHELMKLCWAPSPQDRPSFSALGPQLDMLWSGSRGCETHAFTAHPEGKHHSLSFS

molecule	endpoint.value
O=C(NCC(F)(F)F)C1CN(Nc2ncnc3[nH]ccc23)CCO1 (stereo not shown)	> 1000 nM
CN(c1ncnc2[nH]ccc12)N1CCCC(C(=O)N2CC(O)C2)C1 (stereo not shown)	100 to 1000 nM
CN(c1ncnc2[nH]ccc12)N1CCCC(C(=O)NC2CC(F)(F)C2)C1 (stereo not shown)	10 to 100 nM
CN(c1ncnc2[nH]ccc12)N1CCC[C@@H](C(=O)NCC(F)F)C1 (single isomer, unassigned)	< 10 nM
N#CCNC(=O)C1CCN(Nc2ncnc3[nH]ccc23)CC1	100 to 1000 nM
CN(c1ncnc2[nH]ccc12)N1CCC(C(=O)NCC(F)(F)F)CC1	10 to 100 nM

Query: Find the measured IC50 of CSCNC(=O)C1CCCN(N(C)c2ncnc3[nH]ccc23)C1 (stereo not shown) with JAK3 (Homo sapiens) as test system.
Response: 10 to 100 nM

Query: Find the measured IC50 of CCOC(=O)C1CCCN(N(C)c2ncnc3[nH]ccc23)C1 (stereo not shown) with JAK3 (Homo sapiens) as test system.
Response: 10 to 100 nM

Query: Find the measured IC50 of CN(c1ncnc2[nH]ccc12)N1CCCC(C)(C(=O)NCC#N)C1 (stereo not shown) with JAK3 (Homo sapiens) as test system.
Response: > 1000 nM

Query: Find the measured IC50 of CN(c1ncnc2[nH]ccc12)N1CCCC(NC(=O)CC(F)(F)F)C1 (stereo not shown) with JAK3 (Homo sapiens) as test system.
Response: 100 to 1000 nM
